# Target of assay: T1, recombinant CD3D&E protein (human CD3-his tag) (human, UniProt P04234 22-105; P07766 23-126, limits assumed)
# T1 construct: Analyte in Biacore; also called CD3D&E-His; CD3d&ε-His
# T1 sequence (P04234 22-105 limits assumed, chain 1 of 2): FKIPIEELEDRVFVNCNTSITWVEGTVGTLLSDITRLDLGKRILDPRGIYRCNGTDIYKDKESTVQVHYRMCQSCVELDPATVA
# T1 sequence (P07766 23-126 limits assumed, chain 2 of 2): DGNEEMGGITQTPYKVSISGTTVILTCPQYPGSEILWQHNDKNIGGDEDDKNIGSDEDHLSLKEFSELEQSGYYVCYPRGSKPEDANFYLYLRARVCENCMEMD
# Test protocol: SPR Biacore, Ab captured on Protein A;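 further: humanized antibodies on a Protein A chip, human CD3-his analyte flowed over in serial dilutions for 3 min, dissociation tracked 120–360 s on a Biacore T200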
Collected kon values appear next to each entry.
Reply with just the number (in M⁻¹ s⁻¹).

In the examples that follow, each entry is paired with its recorded kon.
Hu155A9B1-16 (antibody, V domains shown, humanized mAb; also called 155z16) VH: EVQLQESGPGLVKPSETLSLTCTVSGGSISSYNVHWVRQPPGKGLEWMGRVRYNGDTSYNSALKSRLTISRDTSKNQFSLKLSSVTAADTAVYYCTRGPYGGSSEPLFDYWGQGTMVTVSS VL: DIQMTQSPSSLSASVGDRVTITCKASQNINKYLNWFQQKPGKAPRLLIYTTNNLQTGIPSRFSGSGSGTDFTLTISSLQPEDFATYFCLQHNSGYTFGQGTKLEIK
173000
Hu192A7B9-24 (antibody, V domains shown, humanized mAb) VH: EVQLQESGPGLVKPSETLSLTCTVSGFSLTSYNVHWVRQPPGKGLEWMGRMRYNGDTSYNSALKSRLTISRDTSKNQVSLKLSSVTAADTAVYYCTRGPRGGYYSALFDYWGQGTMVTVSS VL: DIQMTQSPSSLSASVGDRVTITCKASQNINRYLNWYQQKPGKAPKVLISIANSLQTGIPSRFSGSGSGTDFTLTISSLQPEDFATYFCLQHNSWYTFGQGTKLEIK
64500
Hu153A6B1-14 (antibody, V domains shown, humanized mAb) VH: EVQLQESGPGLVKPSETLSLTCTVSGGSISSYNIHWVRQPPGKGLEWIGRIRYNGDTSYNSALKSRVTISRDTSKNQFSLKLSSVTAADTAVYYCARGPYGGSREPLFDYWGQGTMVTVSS VL: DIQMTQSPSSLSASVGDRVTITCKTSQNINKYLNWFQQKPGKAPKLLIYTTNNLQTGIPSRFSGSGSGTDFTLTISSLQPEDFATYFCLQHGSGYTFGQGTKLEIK
1.02e+06
Hu192A7B9-20 (antibody, V domains shown, humanized mAb) VH: EVQLQESGPGLVKPSETLSLTCTVSGGSISSYNVHWVRQPPGKGLEWIGRMRYNGDTSYNSALKSRVTISRDTSKNQFSLKLSSVTAADTAVYYCARGPRGGYYSALFDYWGQGTMVTVSS VL: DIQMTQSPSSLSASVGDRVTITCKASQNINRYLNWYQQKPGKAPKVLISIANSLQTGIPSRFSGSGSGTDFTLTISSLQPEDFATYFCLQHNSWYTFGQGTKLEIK
93100
Hu192A7B9-23 (antibody, V domains shown, humanized mAb) VH: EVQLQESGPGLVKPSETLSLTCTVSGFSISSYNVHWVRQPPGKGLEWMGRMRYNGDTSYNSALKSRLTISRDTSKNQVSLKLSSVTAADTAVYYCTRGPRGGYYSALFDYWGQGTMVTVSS VL: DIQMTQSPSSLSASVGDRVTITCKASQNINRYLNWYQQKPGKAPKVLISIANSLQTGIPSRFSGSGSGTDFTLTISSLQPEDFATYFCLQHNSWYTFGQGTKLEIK
70200
Hu155A9B1-7 (antibody, V domains shown, humanized mAb) VH: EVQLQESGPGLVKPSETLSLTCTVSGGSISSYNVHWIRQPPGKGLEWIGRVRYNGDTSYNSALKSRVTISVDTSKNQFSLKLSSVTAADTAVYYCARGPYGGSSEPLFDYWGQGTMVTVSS VL: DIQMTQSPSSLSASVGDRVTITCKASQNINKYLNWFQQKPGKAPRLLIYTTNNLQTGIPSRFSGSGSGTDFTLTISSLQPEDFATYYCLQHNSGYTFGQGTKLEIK
406000
Hu155A9B1-12 (antibody, V domains shown, humanized mAb) VH: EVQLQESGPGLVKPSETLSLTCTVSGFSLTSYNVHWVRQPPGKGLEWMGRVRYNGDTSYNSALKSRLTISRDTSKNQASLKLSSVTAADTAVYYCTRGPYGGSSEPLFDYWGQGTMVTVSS VL: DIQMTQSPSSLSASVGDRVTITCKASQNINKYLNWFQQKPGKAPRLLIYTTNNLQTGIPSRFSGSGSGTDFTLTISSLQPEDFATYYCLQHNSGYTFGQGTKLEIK
55900
Hu192A7B9-14 (antibody, V domains shown, humanized mAb) VH: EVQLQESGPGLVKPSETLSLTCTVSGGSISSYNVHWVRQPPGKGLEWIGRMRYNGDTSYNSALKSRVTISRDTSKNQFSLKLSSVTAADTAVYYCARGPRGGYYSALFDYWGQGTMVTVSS VL: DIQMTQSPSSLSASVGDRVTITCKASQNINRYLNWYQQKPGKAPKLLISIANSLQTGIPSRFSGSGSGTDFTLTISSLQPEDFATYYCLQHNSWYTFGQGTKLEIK
206000
Hu192A7B9-13 (antibody, V domains shown, humanized mAb) VH: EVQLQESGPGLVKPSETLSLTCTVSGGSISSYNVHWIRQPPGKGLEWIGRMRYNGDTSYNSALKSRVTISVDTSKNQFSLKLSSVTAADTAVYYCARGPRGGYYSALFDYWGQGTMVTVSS VL: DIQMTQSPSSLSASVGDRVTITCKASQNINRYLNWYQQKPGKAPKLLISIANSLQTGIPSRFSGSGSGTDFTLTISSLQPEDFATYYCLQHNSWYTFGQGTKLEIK
286000

Recorded kon of Hu153A6B1-3 (antibody, V domains shown, humanized mAb) VH: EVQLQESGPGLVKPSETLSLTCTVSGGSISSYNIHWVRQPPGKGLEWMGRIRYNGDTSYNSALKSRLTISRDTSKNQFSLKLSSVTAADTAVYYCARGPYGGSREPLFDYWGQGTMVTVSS VL: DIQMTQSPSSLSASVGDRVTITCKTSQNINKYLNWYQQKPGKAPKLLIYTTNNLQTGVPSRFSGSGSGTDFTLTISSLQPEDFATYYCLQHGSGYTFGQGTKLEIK , please.
406000
